target: VLP2 (virus-like particles, capsid protein particles of AAV serotype 2) (AAV serotype 2 (AAV2)) (UniProt P03135); experiment: ELISA on immobilised VLP2 (purified protein, 5 µg/mL); A450 after 1:1 1 M NaOH with 1 mM CaCl2, 30°C, 20 min divided by A450 at 0 time
Sequence (P03135 whole entry): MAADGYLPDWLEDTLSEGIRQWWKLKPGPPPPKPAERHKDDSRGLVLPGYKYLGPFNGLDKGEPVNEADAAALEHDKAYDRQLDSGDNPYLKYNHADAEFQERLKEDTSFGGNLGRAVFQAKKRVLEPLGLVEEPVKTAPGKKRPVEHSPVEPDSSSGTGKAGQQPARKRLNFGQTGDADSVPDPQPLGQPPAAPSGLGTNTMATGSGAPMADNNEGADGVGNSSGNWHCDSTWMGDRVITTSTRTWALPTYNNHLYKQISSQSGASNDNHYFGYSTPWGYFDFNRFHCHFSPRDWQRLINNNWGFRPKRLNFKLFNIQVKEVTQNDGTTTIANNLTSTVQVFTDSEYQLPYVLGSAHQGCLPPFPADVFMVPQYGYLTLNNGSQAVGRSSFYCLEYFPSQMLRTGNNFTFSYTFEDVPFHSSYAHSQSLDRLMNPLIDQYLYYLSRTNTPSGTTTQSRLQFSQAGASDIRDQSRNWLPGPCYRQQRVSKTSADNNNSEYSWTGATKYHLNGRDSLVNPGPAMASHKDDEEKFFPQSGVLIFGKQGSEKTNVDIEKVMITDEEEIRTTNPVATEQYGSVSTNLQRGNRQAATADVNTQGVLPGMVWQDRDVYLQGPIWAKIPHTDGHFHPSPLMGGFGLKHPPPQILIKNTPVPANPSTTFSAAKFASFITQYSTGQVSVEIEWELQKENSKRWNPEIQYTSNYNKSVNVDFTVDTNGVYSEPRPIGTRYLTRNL

binder	Remaining activity [%]
AVR29b (AVR25c with G314D, I366F, V394A, K455R) (receptor) MGSADESDQITLPKHEAQLKVYVLLVPPKGEASTYDWQLITHPRDYSGEMEGEHSQFLKLSNLTPGLYEYRAVVEGQNAHSEGYANVTVEPGPRKNRPPIAIVSPQFQEISLPTTSAVIDGSQSTDDDKIVQYHWEELKGPLREERISEDTPILKLSNLVPGNYTFRLTVVDTDGATDSTTADLTVNKAVDHHHHHH	58.7%
AVR29c (AVR25c with I366F, V394A, K455R, K497E) (receptor) MGSAGESDQITLPKHEAQLKVYVLLVPPKGEASTYDWQLITHPRDYSGEMEGEHSQFLKLSNLTPGLYEYRAVVEGQNAHSEGYANVTVEPGPRKNRPPIAIVSPQFQEISLPTTSAVIDGSQSTDDDKIVQYHWEELKGPLREERISEDTPILKLSNLVPGNYTFRLTVVDTDGATDSTTADLTVNEAVDHHHHHH	78.7%
AVR29d (AVR25c with I366F, V394A, K455R, V499I) (receptor) MGSAGESDQITLPKHEAQLKVYVLLVPPKGEASTYDWQLITHPRDYSGEMEGEHSQFLKLSNLTPGLYEYRAVVEGQNAHSEGYANVTVEPGPRKNRPPIAIVSPQFQEISLPTTSAVIDGSQSTDDDKIVQYHWEELKGPLREERISEDTPILKLSNLVPGNYTFRLTVVDTDGATDSTTADLTVNKAIDHHHHHH	63%
AVR25c (AVR25a with K467N) (receptor) MGSAGESDQITLPKHEAQLKVYVLLVPPKGEASTYDWQLITHPRDYSGEMEGEHSQILKLSNLTPGLYEYRAVVEGQNAHSEGYVNVTVEPGPRKNRPPIAIVSPQFQEISLPTTSAVIDGSQSTDDDKIVQYHWEELKGPLREEKISEDTPILKLSNLVPGNYTFRLTVVDTDGATDSTTADLTVNKAVDHHHHHH	12.1%
